ASSAY_INFO: Pharmacokinetics of 2C-B-Fly-NBOMe in blood serum and brain tissue (LC/MS)
Type: in vivo, male Wistar rats
RECORDED_CONDITIONS: male, Wistar, rat, sc; serum; 1 mg/kg s. c.; mean ± SEM; read-out: ke (h^-1) elimination rate constant (converted)
PARAMETER: k el (h⁻¹)
Just the number in h⁻¹, nothing appended.

Quick note, k el for `COc1ccccc1CNCCc1c2c(c(Br)c3c1OCC3)OCC2` landed at 0.733

###

ASSAY_INFO: Pharmacokinetics of 2C-B-Fly-NBOMe in blood serum and brain tissue (LC/MS)
Format: in vivo, male Wistar rats
RECORDED_CONDITIONS: male, Wistar, rat, sc; serum; 1 mg/kg s. c.; Table 1; read-out: t1/2 (converted)
PARAMETER: half-life
Don't forget the unit after the number, please.

Quick note, half-life for COc1ccccc1CNCCc1c2c(c(Br)c3c1OCC3)OCC2 [2C-B-Fly-NBOMe] landed at 2.55 h

The measurements presented in this section are drawn from paper PMC10033663.
